RECORDED_ENDPOINT: melting point

Recorded results for 3 molecules are shown here.
1. Ic1cn(C(c2ccccc2)(c2ccccc2)c2ccccc2)cn1	224 to 225 °C
2. O=C(O)/C=C/c1ccc(F)c(F)c1	193 to 198 °C
3. O=C(N=Nc1ccccc1)NNc1ccccc1	153 to 157 °C

Now for the molecule whose melting point we want.
Query (molecule): CC(O)C(N)CO (stereo not given) ; field requested: melting point
54 to 57 °C

* * *

melting point: recorded values

Recorded results for 2 compounds are shown here.
1. CCN(CC)C(=O)c1[nH]c(C)c(C)c1C	113 to 115 °C
2. Cc1cc(C)c(C=O)[nH]1	90 to 91 °C

Query (compound): NC(=NO)c1cccc(Cl)c1 ; field requested: melting point
115 to 117 °C

Subsequent entry: CCOC(=O)c1cc(O)c(O)c(O)c1
151 to 154 °C
